assay: chemical genetic growth profiling, strain panel (AID 1159580);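 note: tested at 20 µM; growth read once vehicle control cultures reached saturation at 30 °C; 1 = growth at the plate median or of vehicle wells; lower values mean less growth of the strain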; conditions: S. cerevisiae deletion strains, growth OD, locus YML124C, strain tub3, hits give low values
Out of some 5,500 compounds screened, about 2,000 (36%) were called active. Not shown: some 18% with an inconclusive outcome. Some of the results follow.
value_kind: normalized growth

>>> measurement("COC(=O)c1c(C)cc(OC(=O)c2c(C)c(Cl)c(O)c(C=O)c2O)c(C)c1O")
0.985
>>> measurement("CC(=O)N=c1sc(S(N)(=O)=O)nn1C")
1.01
>>> measurement("CC1CC2C3CC(F)C4=CC(=O)C=CC4(C)C3(F)C(O)CC2(C)C1C(=O)COC(=O)C(C)(C)C (stereo not given)")
1.02
>>> measurement("C[C@@H]1CC2C3C[C@H](F)C4=CC(=O)C=C[C@]4(C)[C@@]3(F)[C@@H](O)C[C@]2(C)[C@@]1(O)C(=O)COC(=O)C(C)(C)C (stereo not given in full)")
1
>>> measurement("Cc1nc2sccn2c(=O)c1CCN1CCC(=C(c2ccc(F)cc2)c2ccc(F)cc2)CC1")
1
